- ASSAY SYSTEM: P38a/MAPK14 (Homo sapiens, UniProt Q16539)
- Sequence (Q16539 whole entry): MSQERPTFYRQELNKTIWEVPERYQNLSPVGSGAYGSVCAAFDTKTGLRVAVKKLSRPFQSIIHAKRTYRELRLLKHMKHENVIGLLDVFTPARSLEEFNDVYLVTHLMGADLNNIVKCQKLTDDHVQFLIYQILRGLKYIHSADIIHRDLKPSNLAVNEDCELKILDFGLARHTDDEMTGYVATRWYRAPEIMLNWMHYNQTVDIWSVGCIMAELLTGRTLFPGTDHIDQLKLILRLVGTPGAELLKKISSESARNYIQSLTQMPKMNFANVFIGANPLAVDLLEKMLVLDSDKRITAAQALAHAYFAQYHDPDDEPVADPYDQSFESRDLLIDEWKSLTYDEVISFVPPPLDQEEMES
- METHOD DESCRIPTION: Kinase selectivity, % remaining activity
- Assay type: biochemical
- CONDITION INFO: 10 μM compound, 10 μM ATP, duplicate, read-out: % of remaining activity (relative to DMSO)
TEST READOUT: remaining activity at 10 µM (%)
Please reply with the bare figure in % and do not write the unit itself.

Here's what some known entries look like.
cpd_smiles=Nc1ncc(-c2nc3ccccc3o2)c(-c2ccncc2)n1 recorded_number=53.9
cpd_smiles=CNc1c(C(N)=O)c2ccccn2c1C(=O)c1ccc(F)cc1 recorded_number=35.3
cpd_smiles=NC(=O)c1c(N)c(C(=O)c2ccc(F)cc2)n2ccccc12 recorded_number=17.6
cpd_smiles=Nc1ncnc2c1c(COc1cccc(Cl)c1)nn2C1CCOCC1 recorded_number=71.2

Task: Tell me remaining activity at 10 µM reported for COc1ccc(C=C2N=C(c3cccs3)OC2=O)cc1
Output: 105
